test system: Staphylococcus aureus; experiment: Antibacterial activity against Vancomycin-resistant Staphylococcus aureus 4 assessed as inhibition of bacterial growth incubated for 18 to 24 hrs by CLSI microbroth dilution method; format: functional; details: time 18-24 hrs
# Lookup of reported MIC keyed by entry
Form entry: enter the amount, then its unit.

Worked cases, answers included:
CN[C@H](CC(C)C)C(=O)N[C@H]1C(=O)N[C@@H](CC(N)=O)C(=O)N[C@H]2C(=O)N[C@H]3C(=O)N[C@H](C(=O)N[C@H](C(=O)O)c4cc(O)cc(O)c4-c4cc3ccc4O)[C@H](O)c3ccc(c(Cl)c3)Oc3cc2cc(c3O[C@@H]2O[C@H](CO)[C@@H](O)[C@H](O)[C@H]2O[C@H]2C[C@](C)(NCc3ccc(C(=O)NCCC[N+](C)(C)Cc4cccc5ccccc45)cc3)[C@H](O)[C@H](C)O2)Oc2ccc(cc2Cl)[C@H]1O | 14.9 µM
CN[C@H](CC(C)C)C(=O)N[C@H]1C(=O)N[C@@H](CC(N)=O)C(=O)N[C@H]2C(=O)N[C@H]3C(=O)N[C@H](C(=O)N[C@H](C(=O)O)c4cc(O)cc(O)c4-c4cc3ccc4O)[C@H](O)c3ccc(c(Cl)c3)Oc3cc2cc(c3O[C@@H]2O[C@H](CO)[C@@H](O)[C@H](O)[C@H]2O[C@H]2C[C@](C)(N)[C@H](O)[C@H](C)O2)Oc2ccc(cc2Cl)[C@H]1O | 346 µM

Moving on to another compound below.
Prompt: Record CN[C@H](CC(C)C)C(=O)N[C@H]1C(=O)N[C@@H](CC(N)=O)C(=O)N[C@H]2C(=O)N[C@H]3C(=O)N[C@H](C(=O)N[C@H](C(=O)O)c4cc(O)cc(O)c4-c4cc3ccc4O)[C@H](O)c3ccc(c(Cl)c3)Oc3cc2cc(c3O[C@@H]2O[C@H](CO)[C@@H](O)[C@H](O)[C@H]2O[C@H]2C[C@](C)(NCc3ccc(C(=O)NCCC[N+](C)(C)Cc4ccc(-c5ccccc5)cc4)cc3)[C@H](O)[C@H](C)O2)Oc2ccc(cc2Cl)[C@H]1O : what is its MIC with Staphylococcus aureus?
Completion: 7.3 µM

====

assay: Cytotoxicity against human HEK293 cells assessed as cell viability at 0.5 to 30 uM incubated for 24 hrs by AlamarBlue assay; assay type: toxicity, cell-based; details: dose 0.5-30 µM, read-out: Activity
ENDPOINT: viability at 24 h, up to 30 µM

Prompt: Item under review: CCCCCCCCCCNC(=O)C[N+](C)(C)CCCNC(=O)c1ccc(CN[C@@]2(C)C[C@H](O[C@H]3[C@H](Oc4c5cc6cc4Oc4ccc(cc4Cl)[C@@H](O)[C@@H](NC(=O)[C@@H](CC(C)C)NC)C(=O)N[C@@H](CC(N)=O)C(=O)N[C@H]6C(=O)N[C@H]4C(=O)N[C@H](C(=O)N[C@H](C(=O)O)c6cc(O)cc(O)c6-c6cc4ccc6O)[C@H](O)c4ccc(c(Cl)c4)O5)O[C@H](CO)[C@@H](O)[C@@H]3O)O[C@@H](C)[C@H]2O)cc1 . Reported viability at 24 h, up to 30 µM?
Completion: 100%

====

assay: Induction of hemolysis in human erythrocytes incubated for 1 hr by microtiter plater reader analysis; format: toxicity, cell-based, Erythrocyte
ENDPOINT: HC50 at 1 h

Worked cases, answers included:
CN[C@H](CC(C)C)C(=O)N[C@H]1C(=O)N[C@@H](CC(N)=O)C(=O)N[C@H]2C(=O)N[C@H]3C(=O)N[C@H](C(=O)N[C@H](C(=O)O)c4cc(O)cc(O)c4-c4cc3ccc4O)[C@H](O)c3ccc(c(Cl)c3)Oc3cc2cc(c3O[C@@H]2O[C@H](CO)[C@@H](O)[C@H](O)[C@H]2O[C@H]2C[C@](C)(NCc3ccc(C(=O)NCCC[N+](C)(C)Cc4cccc5ccccc45)cc3)[C@H](O)[C@H](C)O2)Oc2ccc(cc2Cl)[C@H]1O | > 250 µM
CN[C@H](CC(C)C)C(=O)N[C@H]1C(=O)N[C@@H](CC(N)=O)C(=O)N[C@H]2C(=O)N[C@H]3C(=O)N[C@H](C(=O)N[C@H](C(=O)O)c4cc(O)cc(O)c4-c4cc3ccc4O)[C@H](O)c3ccc(c(Cl)c3)Oc3cc2cc(c3O[C@@H]2O[C@H](CO)[C@@H](O)[C@H](O)[C@H]2O[C@H]2C[C@](C)(NCc3ccc(C(=O)NCCC[N+](C)(C)Cc4ccccc4)cc3)[C@H](O)[C@H](C)O2)Oc2ccc(cc2Cl)[C@H]1O | > 250 µM

Moving on to another compound below.
Prompt: Item under review: CCCCCCCCCCCCCCNC(=O)c1ccc(CN[C@@]2(C)C[C@H](O[C@H]3[C@H](Oc4c5cc6cc4Oc4ccc(cc4Cl)[C@@H](O)[C@@H](NC(=O)[C@@H](CC(C)C)NC)C(=O)N[C@@H](CC(N)=O)C(=O)N[C@H]6C(=O)N[C@H]4C(=O)N[C@H](C(=O)N[C@H](C(=O)O)c6cc(O)cc(O)c6-c6cc4ccc6O)[C@H](O)c4ccc(c(Cl)c4)O5)O[C@H](CO)[C@@H](O)[C@@H]3O)O[C@@H](C)[C@H]2O)cc1 . Reported HC50 at 1 h?
Completion: 27.5 µM
